Biological target: GST-Rok-C97-191 (Bacillus subtilis subsp. subtilis str. …, UniProt O34857 97-191)
Sequence: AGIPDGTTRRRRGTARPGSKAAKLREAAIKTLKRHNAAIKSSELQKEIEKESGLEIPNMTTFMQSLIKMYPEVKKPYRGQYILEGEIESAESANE
Test: protein binding microarray; Rok is a gene silencer of Bacillus subtilis; high values mean tight binding
Details: protein: recombinant; tags: GST (pTH5325, pDEST15-Magic modified); dsDNA, one strand shown
The full ranking holds about 33,000 sequences; the median of “e-score” is about -0.038, and the highest 2% start at about 0.33. Many of the other results were omitted from the sample, so the highest values are more common in it than they were.
value-type: binding signal

| biosequence | value-type | observed-result |
| --- | --- | --- |
| ACTCCTTA | binding signal | 0.00627 E-score |
| ACTAACTA | binding signal | 0.367 E-score |
| TACTGAGA | binding signal | 0.0745 E-score |
| AAGATTGC | binding signal | -0.0164 E-score |
| CGGTAGTA | binding signal | 0.391 E-score |
| AGTAACTG | binding signal | 0.124 E-score |
| AGGTAATA | binding signal | 0.328 E-score |
| CAAAAGGG | binding signal | -0.177 E-score |
| ATAGAATA | binding signal | 0.354 E-score |
| CGGTGCAG | binding signal | -0.0983 E-score |
| CAGGTCAA | binding signal | -0.108 E-score |
| ATTTACTC | binding signal | 0.234 E-score |
| CTATACAA | binding signal | 0.3 E-score |
| ATAAATAC | binding signal | 0.287 E-score |
| AATTACCA | binding signal | 0.33 E-score |
| ATCAACTG | binding signal | 0.0687 E-score |
| GCCATTGA | binding signal | -0.0503 E-score |
| CGGTAGTC | binding signal | 0.174 E-score |
| TACGTATA | binding signal | 0.349 E-score |
| CCACAATA | binding signal | 0.2 E-score |
| ATAGATTA | binding signal | 0.331 E-score |
| ACAAATAA | binding signal | 0.246 E-score |
| AGAAATAG | binding signal | 0.326 E-score |
| GATTACCA | binding signal | 0.14 E-score |
| TACCTAAA | binding signal | 0.369 E-score |
| ATATACAA | binding signal | 0.365 E-score |
| ACAAATAC | binding signal | 0.266 E-score |
| GCATACTA | binding signal | 0.241 E-score |
| CGTATCAA | binding signal | 0.0404 E-score |
| GATTACTA | binding signal | 0.354 E-score |
| TCAGCCCA | binding signal | -0.191 E-score |
| AACCTAAA | binding signal | 0.0757 E-score |
| ATAAATAG | binding signal | 0.252 E-score |
| GCTCGCAA | binding signal | -0.145 E-score |
| AGAAATAT | binding signal | 0.346 E-score |
| CAGTAATC | binding signal | -0.0737 E-score |
| CAATTTAG | binding signal | 0.232 E-score |
| ATAGAAAC | binding signal | 0.326 E-score |
| ATAAATAT | binding signal | 0.369 E-score |
| AATTACTC | binding signal | 0.255 E-score |
| AGCAGTCC | binding signal | -0.0761 E-score |
| CGGGACTA | binding signal | 0.0767 E-score |
| GGAATCAC | binding signal | -0.0168 E-score |
| ACATACTA | binding signal | 0.305 E-score |
| AAAGCCAT | binding signal | -0.088 E-score |
| GTTACAGA | binding signal | 0.21 E-score |
| AGGTAATG | binding signal | 0.113 E-score |
| GGTAACTA | binding signal | 0.336 E-score |
| ACGCCAAA | binding signal | -0.128 E-score |
| GCCGTAAA | binding signal | -0.0195 E-score |
| AACCAATT | binding signal | 0.204 E-score |
| ACTTAAAG | binding signal | -0.106 E-score |
| ATTATTAA | binding signal | 0.199 E-score |
| ACATCCGA | binding signal | -0.00901 E-score |
| CCAACTCG | binding signal | -0.0471 E-score |
| GGCAAAGA | binding signal | -0.188 E-score |
| ATAGATTC | binding signal | 0.34 E-score |
| GGTAACGA | binding signal | 0.0496 E-score |
| GCTAACTA | binding signal | 0.324 E-score |
| CACCTATA | binding signal | 0.223 E-score |
| ACGACTTC | binding signal | 0.0725 E-score |
| CGAAGGAG | binding signal | -0.0169 E-score |
| GACAGGCA | binding signal | -0.106 E-score |
| CTAAATAC | binding signal | 0.287 E-score |
| CGAAACAA | binding signal | 0.0284 E-score |
| CATTACTA | binding signal | 0.32 E-score |
| GGATACTA | binding signal | 0.167 E-score |
| ATATACTA | binding signal | 0.436 E-score |
| ACCAGGCG | binding signal | -0.1 E-score |
| ACCTTGGC | binding signal | -0.158 E-score |
| ATAGATTG | binding signal | 0.304 E-score |
| GACGTATA | binding signal | 0.174 E-score |
| ATATACTC | binding signal | 0.293 E-score |
| CAATTTAC | binding signal | 0.357 E-score |
| GAGAGCTC | binding signal | -0.123 E-score |
| TGGCAAAA | binding signal | 0.122 E-score |
| CTTATTTC | binding signal | 0.221 E-score |
| AACCTATA | binding signal | 0.183 E-score |
| AGGTAGTG | binding signal | -0.0194 E-score |
| CACAATGA | binding signal | 0.00707 E-score |
| TAAATTTA | binding signal | 0.405 E-score |
| TAGACCCA | binding signal | 0.00211 E-score |
| ACGTGAGC | binding signal | -0.0668 E-score |
| AGACCTGG | binding signal | -0.167 E-score |
| GCAACATA | binding signal | 0.217 E-score |
| GACAGACA | binding signal | -0.102 E-score |
| ATAAAGGC | binding signal | 0.052 E-score |
| GATTACAA | binding signal | 0.134 E-score |
| AAAATTTA | binding signal | 0.282 E-score |
| AGGTAGTA | binding signal | 0.328 E-score |
| ACCTATGC | binding signal | -0.0256 E-score |
